tested on: Plasmodium berghei; experiment: Screen against P. berghei liver stage (PbLuc), transformed with Luciferase, at 10uM; assay type: functional, HepG2; conditions: tested at 10 uM
Among all 69,000 compounds or so, about 8,600 (12%) showed an effect of 50% or more. This is one part of a sample in which strong results are shown more often than they occur.
OBSERVED PROPERTY: INHIBITION (%)
One number for each entry, in %.

Sample answers from the record:
COMPOUND: CCN1CCOCC12CCN(C(=O)Cc1ccccc1)CC2
INHIBITION [%]: 28.7
--
COMPOUND: NC(=O)C1CCN(C(=O)c2cccc(OCc3cscn3)c2)CC1
INHIBITION [%]: 17.8

The following compounds each have a reported value; give each one's INHIBITION.
1. Cc1noc(C)c1CN1CCN(C(C)c2nc(C3CC3)no2)CC1 (stereo unspecified)
2. Cc1noc(C)c1Cc1nc(C2CC2)no1
3. Cc1noc(C)c1CN1CCCC(c2noc(C3CC3)n2)C1 (stereo unspecified)
4. Cc1cnc(CN2CCN(C(C)c3nc(C4CC4)no3)CC2)cn1 (stereo unspecified)

1: 59; 2: 14.6; 3: -12.2; 4: 24.7

----------
Can you tell me INHIBITION for the items I'm about to list?
system: Plasmodium berghei; experiment: Screen against P. berghei liver stage (PbLuc), transformed with Luciferase, at 10uM; assay type: functional, HepG2; settings: tested at 10 uM
The campaign covered roughly 69,000 compounds. About 8,600 (12%) showed an effect of 50% or more. Many of the other results were omitted from the sample, so strong results are more common in it than they were.
Numbers only, in %.

COMPOUND: NC(=O)CNC(=O)c1cc(Cn2cnc3ccccc32)[nH]n1
VALUE REPORTED: -72.5
--
COMPOUND: CCc1nnc2n1CCN(C(=O)C(C)Oc1ccc(C#N)cc1)C2 (stereo unspecified)
VALUE REPORTED: -48.3
--
COMPOUND: CCCN(CC)C(=O)c1cc(Cn2c(C)nc3ccccc32)[nH]n1
VALUE REPORTED: 75.7
--
COMPOUND: COc1cccc(CC(=O)NC(C)c2nc3cccnc3n2C(C)C)c1 (stereo unspecified)
VALUE REPORTED: -17.7
--
COMPOUND: CC(C)Nc1ncnc2c1CCN(C(=O)c1ccncc1F)CC2
VALUE REPORTED: 53.5
--
COMPOUND: CCn1nc(C)c(CN(CCOC)C(=O)c2ccc(=O)[nH]n2)c1C
VALUE REPORTED: -65
--
COMPOUND: CCc1ncnc2c1CCN(C(=O)c1ccncc1F)CC2
VALUE REPORTED: -49.3
--
COMPOUND: Cc1nc2ccccc2n1Cc1cc(C(=O)N(C)C2CCOC2)n[nH]1 (stereo unspecified)
VALUE REPORTED: -39.9
--
COMPOUND: CCCN(CCOC)C(=O)c1cc(Cn2c(C)nc3ccccc32)[nH]n1
VALUE REPORTED: 65.7
--
COMPOUND: O=C(c1ccncc1F)N1CCc2ncnc(N3CCOCC3)c2CC1
VALUE REPORTED: 5.44

Fill in reported INHIBITION for this entry: O=C(c1ccncc1F)N1CCc2ncnc(C3CC3)c2CC1
-2.72

----------
tested on: Plasmodium berghei; assay: Screen against P. berghei liver stage (PbLuc), transformed with Luciferase, at 10uM; type: functional, HepG2; settings: tested at 10 uM
Screen size: about 69,000 compounds; about 8,600 (12%) showed an effect of 50% or more. The sample holds strong results, similar compounds and a random draw of the others, so the mix is not that of the screen.
OBSERVED PROPERTY: INHIBITION (%)
Give bare numbers, in %.

MOLECULE: COCCn1nc(C(=O)N2CCOCC2C)ccc1=O (configuration not stated)
VALUE REPORTED: 47.6

Give INHIBITION for all molecules that follow.
1. COc1ccc(-n2ccc(C(=O)N3CCN(C)CC3C)n2)cc1 (configuration not stated)
2. O=C(c1coc(COc2cccc3cnccc23)n1)N1CCSCC1
3. O=C(c1coc(COc2ccccc2F)n1)N1CCCO1
4. O=S(=O)(NCCCn1cncn1)c1ccc2c(c1)OCCCO2
5. O=C(c1cc(=O)c(OCc2ccccc2)co1)N1CCSCC1
6. NC(=O)C1CCN(C(=O)c2ccn(-c3cccc(F)c3)n2)C1 (configuration not stated)
7. NC(=O)C1CCN(C(=O)c2ccn(-c3ccc(F)cc3)n2)C1 (configuration not stated)
8. O=C(c1coc(COc2ccccc2F)n1)N1CCC[C@H]1CO

1: 20.9; 2: 74.9; 3: -4.235; 4: 49; 5: 21.5; 6: 23.5; 7: 16.1; 8: 2.611

----------
tested on: Plasmodium berghei; assay: Screen against P. berghei liver stage (PbLuc), transformed with Luciferase, at 10uM; assay type: functional, HepG2; settings: tested at 10 uM
In all, about 69,000 compounds went through this assay and about 8,600 (12%) showed an effect of 50% or more. The sample as a whole holds a higher share of strong results than the screen did.
OBSERVED PROPERTY: INHIBITION (%)
Give bare numbers, in %.

Each compound below has a recorded value; state its INHIBITION.
1. Cc1ncc(CN)c(-c2cn(C)c3ccccc23)n1
2. Clc1cnccc1NCc1cccc(COC2CCOCC2)c1
3. Cc1ccc(=O)n(CC2(O)CCN(Cc3cnn(C)c3)CC2)n1
4. Cc1nn(-c2ccc(C(=O)O)cc2)c2c1C(C(C)C)SCC(=O)N2 (configuration not stated)
5. CS(=O)(=O)NCc1cccc(COC2CCCCC2)c1
6. COCCn1nc(C(=O)N(C)Cc2cccnc2)ccc1=O

9.05
79.7
-3.31
-2.39
9.63
6.72

Give INHIBITION for each of the items listed below.
1. CN(C)c1ncc(I)c(C2CCCCN2C)n1 (configuration not stated)
2. CCC(CN1CCCC1)NC(=O)C1(c2cccc(F)c2)CC1 (configuration not stated)
3. Cc1ccc(CN2CC[C@H]3C[C@H](C(=O)N4CCCO4)O[C@@H]3C2)o1
4. CC(O)CNC(=O)CCc1nc2ncccc2[nH]1 (configuration not stated)

-0.232
53.65
38.5
26.6

Your task in this section: give INHIBITION for each listed record.
1. CCC(CN1CCN(C)CC1)NC(=O)C1(c2cccc(F)c2)CC1 (configuration not stated)
2. Cc1nc(CN2CCC3(CC2)C(=O)N(C)CCN3C)cs1

37.5
31.5

----------
system: Plasmodium berghei; assay: Screen against P. berghei liver stage (PbLuc), transformed with Luciferase, at 10uM; format: functional, HepG2; conditions: tested at 10 uM
Hit rate of the full screen: of about 69,000 compounds, about 8,600 (12%) showed an effect of 50% or more. What follows is part of a selection rich in strong results, with near analogues and random picks from the rest.
Lab note: cut-off is 30%. Strictly less in INHIBITION is 1. Exactly 30% or more is -1.

COMPOUND: Cc1ccc2c(c1)OC(C)CN2C(=O)c1c[nH]c(C)cc1=O (stereo unspecified)
CAT: 1

COMPOUND: CCC(CCNCc1cnc(C2CCC2)s1)N1CCCC1=O (stereo unspecified)
CAT: -1

COMPOUND: O=C(CCc1ccccc1F)NS(=O)(=O)c1ccc2c(c1)OCCCO2
CAT: 1

COMPOUND: CC(CCN1CCCC1=O)NCc1cnc(C2CCC2)s1 (stereo unspecified)
CAT: -1

COMPOUND: Cc1ccc(N2CCC(NCc3cnc(C4CCC4)s3)CC2)nc1
CAT: -1

Please look at the following compound next.
# strict comparison: is reported INHIBITION < 30%? input = Cc1ccccc1C(=O)N1CCC2(CCCN2CCN(C)C)CC1
1

----------
I'd appreciate it if you could supply INHIBITION values for the items below.
test system: Plasmodium berghei; assay: Screen against P. berghei liver stage (PbLuc), transformed with Luciferase, at 10uM; assay type: functional, HepG2; conditions: tested at 10 uM
The whole screen tested about 69,000 compounds, of which about 8,600 (12%) showed an effect of 50% or more. The list comes from a sample in which strong results are over-represented; it also holds close analogues and randomly drawn compounds.
Please state the value followed by its unit.

MOLECULE: Cc1nn(C)c(Cl)c1C(=O)NCC1(C(N)=O)CCOCC1
OBSERVED PROPERTY: INHIBITION
VALUE REPORTED: 27.5%

MOLECULE: CCOC(=O)c1cnn(-c2cc(Oc3ccccc3C)ncn2)c1N
OBSERVED PROPERTY: INHIBITION
VALUE REPORTED: -35.9%

MOLECULE: CCn1cc(CN2CCCC(COc3ccc(F)cc3)C2)cn1 (centres undefined)
OBSERVED PROPERTY: INHIBITION
VALUE REPORTED: 74%

MOLECULE: CCN1CCC(CNC(=O)c2cc(Cl)c[nH]2)CC1
OBSERVED PROPERTY: INHIBITION
VALUE REPORTED: 7.39%

MOLECULE: Cn1nccc1CN1CCCC(COc2ccccc2F)C1 (centres undefined)
OBSERVED PROPERTY: INHIBITION
VALUE REPORTED: 17.4%

MOLECULE: CCN1CCCC(CNC(=O)C2(c3cc(C)cc(C)c3)CCC2)C1 (centres undefined)
OBSERVED PROPERTY: INHIBITION
VALUE REPORTED: 51.1%

MOLECULE: COCCN1CCC(CNC(=O)c2cc(Cl)c[nH]2)CC1
OBSERVED PROPERTY: INHIBITION
VALUE REPORTED: 72.3%

MOLECULE: Cc1n[nH]c(C2CN(C(=O)c3cc(Cl)c[nH]3)CCO2)n1 (centres undefined)
OBSERVED PROPERTY: INHIBITION
VALUE REPORTED: 31.6%

Quick one: give me INHIBITION for each item below, same order please.
1. NC(=O)CC1CCN(c2cncc(OCc3ccccc3)n2)CC1
2. O=C(c1ccc(-n2cccn2)nc1)N1CCCC(c2cnccn2)C1 (centres undefined)
3. CN(C)C(=O)C1CCN(c2cncc(-n3cccn3)n2)CC1
4. NC(=O)C1CCN(c2cncc(-n3cccn3)n2)CC1
5. CC(C)c1ccc(C2CC(=O)Nc3c2cnn3C)cc1 (centres undefined)

12.4%
-50.3%
41.4%
48.3%
14.7%

Return reported INHIBITION values for all items listed beneath this line.
1. c1ccc(C2CCCN(c3cncc(-n4cccn4)n3)CC2)cc1 (centres undefined)
2. CCOC(=O)c1cnn(-c2cc(Oc3ccccc3)ncn2)c1N
3. Cn1cc(C[C@H]2[C@H](O)CCN2Cc2ccc(F)cc2)cn1
4. CCCN1CCC(CNC(=O)C2(c3cc(C)cc(C)c3)CCC2)C1 (centres undefined)
5. c1ccc(C2CCN(c3cncc(-n4cccn4)n3)CC2)cc1

1: 90.2%; 2: -10.9%; 3: 57.9%; 4: 25.1%; 5: 85.1%
